- Test system: HOP-92 NSCLC
- protocol.description: NCI tumour cell line growth inhibition, 48 h
TGI of 20 µM or higher: yes (1). Under 20 µM: no (0).

Determine whether measured TGI meets or exceeds 20 µM for CN1C(=O)N(C)C2(CCN(CC(CC3OCCO3)c3ccc(F)cc3)CC2)C1=O (stereo not given)
yes (1)

Determine whether measured TGI meets or exceeds 20 µM for O=C1Cc2c(-c3ccccc3)cc(-c3ccccc3)nc2-c2ccccc2N1
yes (1)

Determine whether measured TGI meets or exceeds 20 µM for CC(=O)N1C(C(=O)NN2CCOCC2)CSC1c1ccccc1 (stereo not given)
yes (1)

Determine whether measured TGI meets or exceeds 20 µM for CCCC(=O)OCC1OC2OC(C)(C)OC2C2OC(C)(C)OC12 (stereo not given)
yes (1)

Determine whether measured TGI meets or exceeds 20 µM for COc1ccc2[nH]c(Cl)c(/C=C3/C(=O)Nc4ccccc43)c2c1
no (0)

Determine whether measured TGI meets or exceeds 20 µM for NC1=NN(c2ccccc2)C(=O)C1C(=O)C(=O)Nc1ccc(Cl)cc1 (stereo not given)
yes (1)

Determine whether measured TGI meets or exceeds 20 µM for O=[N+]([O-])c1cc(C2(N3CCCCC3)CCCCC2)sc1Br
yes (1)

Determine whether measured TGI meets or exceeds 20 µM for Cc1cccc2c(C3=C(c4cn(C)c5ccccc45)C(=O)NC3=O)cn(C)c12
yes (1)

Determine whether measured TGI meets or exceeds 20 µM for CN1CCN(CCCOc2cccc3nc(Nc4cc(Cl)cc(Cl)c4)ccc23)CC1
no (0)

Determine whether measured TGI meets or exceeds 20 µM for CC(C)OP(=O)(OC(C)C)C(=NCCO)NNc1ccc([N+](=O)[O-])cc1
yes (1)

Determine whether measured TGI meets or exceeds 20 µM for C/C=C1/CN2CCC34C(=C(C(=O)OC)C1CC23)Nc1ccc(O)cc14 (stereo not given)
yes (1)

Determine whether measured TGI meets or exceeds 20 µM for CN1C(=O)c2ccccc2C(O)(c2ccccc2)C1(O)c1ccccc1 (stereo not given)
yes (1)

Determine whether measured TGI meets or exceeds 20 µM for C=CC(=O)N[C@@H]1CN(c2nc(Nc3cn(C)nc3OC)c3ncn(C)c3n2)C[C@H]1F
yes (1)

Determine whether measured TGI meets or exceeds 20 µM for CCn1cnc(C[C@H](NC(=O)[C@H](CCCCNC(=O)Nc2cc(C(F)(F)F)cc(C(F)(F)F)c2)NC(=O)Nc2cc(C(F)(F)F)cc(C(F)(F)F)c2)C(=O)OC)c1
no (0)

Determine whether measured TGI meets or exceeds 20 µM for COC(=O)C1OC(O[C@H]2CC[C@]3(C)[C@H]4CC=C5[C@@H]6CC(C)(C)CC[C@]6(C(=O)OC)CC[C@@]5(C)[C@]4(C)CC[C@H]3C2(C)C)C(O)C(O)C1O (stereo not given in full)
yes (1)

Determine whether measured TGI meets or exceeds 20 µM for O=C(O)c1cc(N=Nc2ccc([N+](=O)[O-])cc2)ccc1O
yes (1)

Determine whether measured TGI meets or exceeds 20 µM for NCCOc1ccc(/C(=C(/Cl)c2ccccc2)c2ccccc2)cc1
no (0)

Determine whether measured TGI meets or exceeds 20 µM for O=C1OC(CC(=O)c2ccc(F)cc2)C(Cl)=C1Cl (stereo not given)
yes (1)

Determine whether measured TGI meets or exceeds 20 µM for Cc1ccccc1NC(=O)CC1C(=O)Nc2ccccc2S1=O (stereo not given)
yes (1)
